Kb for assorted compounds
molecular target: Muscarinic acetylcholine receptor M3 (Cavia porcellus); experiment: Antagonist activity at M3 receptor in Dunkin-Hartley guinea pig trachea assessed as inhibition of methacholine-induced airway smooth muscle contraction after 1 to 4 hrs; details: read-out: pA2 (converted)
Kindly provide the numeric value in nM only, without the unit symbol.

# annotated cases, reported Kb shown
O=C(C[N+]12CCC(CC1)[C@@H](OC(=O)C1(C3=CC=CC3)CCCCCC1)C2)Nc1ccccn1	0.398
O=C(C[N+]12CCC(CC1)[C@@H](OC(=O)C1(C3=CC=CC3)CCCCCC1)C2)Nc1ccon1	0.02
O=C(O[C@H]1C[N+]2(Cc3nnc(-c4ccccc4)o3)CCC1CC2)C1(C2=CC=CC2)CCCCCC1	0.2
O=C(O[C@H]1C[N+]2(Cc3nc4ccccc4o3)CCC1CC2)C1(C2=CC=CC2)CCCCCC1	0.158
Cc1cc(NC(=O)C[N+]23CCC(CC2)[C@@H](OC(=O)C2(C4=CC=CC4)CCCCCC2)C3)no1	0.251

Form field Kb, entry O=C(O[C@H]1C[N+]2(Cc3nc(-c4ccccc4)no3)CCC1CC2)C1(C2=CC=CC2)CCCCCC1 : 0.398

Quick note, Kb for O=C(O[C@H]1C[N+]2(CCc3cccc(Cl)c3)CCC1CC2)C1(C2=CC=CC2)CCCCCC1 landed at 0.251

---

molecular target: Muscarinic acetylcholine receptor M3 (Cavia porcellus, UniProt Q8VH26); test: Antagonist activity at M3 receptor in Dunkin-Hartley guinea pig trachea assessed as inhibition of methacholine-induced airway smooth muscle contraction after 1 to 4 hrs; settings: read-out: pA2 (converted)
Sequence (Q8VH26 whole entry): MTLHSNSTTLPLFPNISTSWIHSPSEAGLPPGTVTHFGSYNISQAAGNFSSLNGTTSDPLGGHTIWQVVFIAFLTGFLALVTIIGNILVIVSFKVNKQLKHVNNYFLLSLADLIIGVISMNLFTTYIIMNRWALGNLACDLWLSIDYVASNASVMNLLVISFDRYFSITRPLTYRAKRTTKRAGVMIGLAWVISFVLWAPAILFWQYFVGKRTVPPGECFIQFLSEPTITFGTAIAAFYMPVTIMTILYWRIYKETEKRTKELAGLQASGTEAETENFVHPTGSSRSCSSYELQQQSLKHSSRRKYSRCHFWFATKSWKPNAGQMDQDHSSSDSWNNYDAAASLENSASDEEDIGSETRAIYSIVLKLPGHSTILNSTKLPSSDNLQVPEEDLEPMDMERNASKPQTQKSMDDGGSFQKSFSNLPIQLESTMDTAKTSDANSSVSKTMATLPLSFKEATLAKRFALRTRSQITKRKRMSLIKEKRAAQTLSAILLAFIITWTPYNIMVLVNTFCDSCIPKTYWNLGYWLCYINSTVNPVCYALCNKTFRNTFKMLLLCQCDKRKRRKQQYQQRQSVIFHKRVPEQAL
Observed Property: Kb (nM)
Number only, in nM; omit the unit.

O=C(O[C@H]1C[N+]2(CCCc3ccncc3)CCC1CC2)C1(C2=CC=CC2)CCCCCC1	0.126
O=C(O[C@H]1C[N+]2(CCc3ccccc3)CCC1CC2)C1(C2=CC=CC2)CCCCCC1	0.316
O=C(C[N+]12CCC(CC1)[C@@H](OC(=O)C1(C3=CC=CC3)CCCCCC1)C2)Nc1ccc(Cl)nn1	0.2
O=C(O[C@H]1C[N+]2(CCCc3ccncc3)CCC1CC2)C1(c2cccs2)CCCCCC1	0.1

Field Kb (entry O=C(C[N+]12CCC(CC1)[C@@H](OC(=O)C1(C3=CC=CC3)CCCCCC1)C2)Nc1cccc(F)c1 ) reads 3.16

The value of Kb measured for the molecule O=C(C[N+]12CCC(CC1)[C@@H](OC(=O)C1(C3=CC=CC3)CCCCCC1)C2)Nc1cnccn1 turned out to be 0.126

The molecule listed as Cc1cc(CCC[N+]23CCC(CC2)[C@@H](OC(=O)C2(C4=CC=CC4)CCCCCC2)C3)ccn1 has a reported Kb of 0.158

Per the records, this molecule ( O=C(C[N+]12CCC(CC1)[C@@H](OC(=O)C1(C3=CC=CC3)CCCCCC1)C2)Nc1cccnn1 ) has Kb equal to 0.0794

---

target: Muscarinic acetylcholine receptor M3 (Homo sapiens); experiment: Displacement of [3H]NMS from recombinant human M3 receptor expressed in CHO-K1 cells after 16 hrs by SPA method
Sequence (P20309 whole entry): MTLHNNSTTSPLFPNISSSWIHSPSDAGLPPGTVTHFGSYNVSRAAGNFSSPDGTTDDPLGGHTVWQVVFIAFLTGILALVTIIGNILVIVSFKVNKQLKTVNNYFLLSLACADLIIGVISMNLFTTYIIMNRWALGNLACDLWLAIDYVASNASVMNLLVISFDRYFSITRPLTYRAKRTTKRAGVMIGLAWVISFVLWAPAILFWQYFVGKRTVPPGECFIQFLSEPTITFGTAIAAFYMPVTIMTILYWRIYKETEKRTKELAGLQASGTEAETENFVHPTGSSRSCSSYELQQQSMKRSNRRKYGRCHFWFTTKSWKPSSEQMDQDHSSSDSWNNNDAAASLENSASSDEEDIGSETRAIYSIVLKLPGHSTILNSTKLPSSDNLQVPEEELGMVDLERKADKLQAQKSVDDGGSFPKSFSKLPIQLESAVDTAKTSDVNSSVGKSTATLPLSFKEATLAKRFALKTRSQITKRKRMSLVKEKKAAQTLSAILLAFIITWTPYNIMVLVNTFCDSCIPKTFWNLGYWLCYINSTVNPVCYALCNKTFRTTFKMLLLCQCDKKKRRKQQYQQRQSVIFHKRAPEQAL
The entries below are paired with their reported IC50.
Only the number, expressed in pM, is required.

O=C(O[C@H]1C[N+]2(Cc3ccccc3)CCC1CC2)C1(C2=CC=CC2)CCCCCC1	39800
O=C(C[N+]12CCC(CC1)[C@@H](OC(=O)C1(C3=CC=CC3)CCCCCC1)C2)Nc1cncc(Cl)n1	100
O=C(O[C@H]1C[N+]2(Cc3ccn(-c4ccccc4)n3)CCC1CC2)C1(C2=CC=CC2)CCCCCC1	398

Item: Cc1ccc(NC(=O)C[N+]23CCC(CC2)[C@@H](OC(=O)C2(C4=CC=CC4)CCCCCC2)C3)nc1 | IC50: 501

---

molecular target: Muscarinic acetylcholine receptor M3 (Homo sapiens); experiment: Displacement of [3H]NMS from recombinant human M3 receptor expressed in CHO-K1 cells after 16 hrs by SPA method
Observed Property: IC50 (nM)
Numeric answer only, unit nM assumed.

Below, each entry is followed by its recorded IC50 result.
COc1cccc(C[N+]23CCC(CC2)[C@@H](OC(=O)C2(C4=CC=CC4)CCCCCC2)C3)c1	3.16
O=C(C[N+]12CCC(CC1)[C@@H](OC(=O)C1(C3=CC=CC3)CCCCCC1)C2)Nc1ncco1	12.6
Cc1ccc(NC(=O)C[N+]23CCC(CC2)[C@@H](OC(=O)C2(C4=CC=CC4)CCCCCC2)C3)cn1	0.794
O=C(C[N+]12CCC(CC1)[C@@H](OC(=O)C1(C3=CC=CC3)CCCCCC1)C2)Nc1ccccn1	0.158

So for O=C(O[C@H]1C[N+]2(Cc3nc4ccccc4o3)CCC1CC2)C1(C2=CC=CC2)CCCCCC1 , the logged IC50 turned out to be 0.1

---

experiment: Intrinsic clearance in human liver microsomes; assay type: ADME; conditions: read-out: CLH
Tag: 1 if measured microsomal CLint is not below 40 µL/min/mg, 0 if it is.

Cc1ccc(CCC[N+]23CCC(CC2)[C@@H](OC(=O)C2(C4=CC=CC4)CCCCCC2)C3)c(C)n1	1
O=C(O[C@H]1C[N+]2(CCCOc3ccccc3)CCC1CC2)C(O)(c1cccs1)c1cccs1.[Br-] [ACLIDINIUM BROMIDE]	1
O=C(C[N+]12CCC(CC1)[C@@H](OC(=O)C1(C3=CC=CC3)CCCCCC1)C2)Nc1cccc(F)c1	0
O=C(C[N+]12CCC(CC1)[C@@H](OC(=O)C1(C3=CC=CC3)CCCCCC1)C2)Nc1cncnc1	0
Cc1ccc(NC(=O)C[N+]23CCC(CC2)[C@@H](OC(=O)C2(C4=CC=CC4)CCCCCC2)C3)nn1	0
O=C(O[C@H]1C[N+]2(CCOCc3ccccc3)CCC1CC2)C1(C2=CC=CC2)CCCCCC1	1
O=C(C[N+]12CCC(CC1)[C@@H](OC(=O)C1(C3=CC=CC3)CCCCCC1)C2)NCCNC(=O)c1cnccn1	1
C[N+]12CCC(CC1)[C@@H](OC(=O)C1(C3=CC=CC3)CCCCCC1)C2	0
O=C(C[N+]12CCC(CC1)[C@@H](OC(=O)C1(C3=CC=CC3)CCCCCC1)C2)Nc1ccccn1	1
Cc1cc(CCC[N+]23CCC(CC2)[C@@H](OC(=O)C2(C4=CC=CC4)CCCCCC2)C3)ccn1	1

**Q:** In plain terms: is recorded microsomal CLint at least 40 µL/min/mg for N#Cc1ccc(CC[N+]23CCC(CC2)[C@@H](OC(=O)C2(C4=CC=CC4)CCCCCC2)C3)cc1 ?
**A:** 1

**Q:** Please check the record O=C(C[N+]12CCC(CC1)[C@@H](OC(=O)C1(C3=CC=CC3)CCCCCC1)C2)Nc1ncccc1F and state if its microsomal CLint is at or above 40 µL/min/mg.
**A:** 1

**Q:** Form field: microsomal CLint at least 40 µL/min/mg? Entry: O=C(C[N+]12CCC(CC1)[C@@H](OC(=O)C1(C3=CC=CC3)CCCCCC1)C2)Nc1ccccc1
**A:** 0

**Q:** Is the recorded value of microsomal CLint equal to or greater than 40 µL/min/mg for this compound? NC(=O)C[N+]12CCC(CC1)[C@@H](OC(=O)C1(C3=CC=CC3)CCCCCC1)C2
**A:** 0

**Q:** # check: microsomal CLint of O=C(O[C@H]1C[N+]2(Cc3csc(-c4ccccc4)n3)CCC1CC2)C1(C2=CC=CC2)CCCCCC1 is greater than or equal to 40 µL/min/mg
**A:** 1

---

assay: Half life in guinea pig lung administered via intratracheal instillation at 1 ug/kg by HPLC-MS analysis; format: ADME, tissue-based, Cavia porcellus; details: inhaled or intranasal, 0.001 mg/kg
Observed Property: half-life (h)
Write down the numeric answer in h and omit the unit.

O=C(O[C@H]1C[N+]2(Cc3cc(-c4ccccc4)no3)CCC1CC2)C1(C2=CC=CC2)CCCCCC1	16.5

Consider O=C(C[N+]12CCC(CC1)[C@@H](OC(=O)C1(C3=CC=CC3)CCCCCC1)C2)Nc1ccon1 . Its measured half-life is 19

Lab book: half-life of O=C(O[C@H]1C[N+]2(Cc3cc(-c4ccccc4)on3)CCC1CC2)C1(C2=CC=CC2)CCCCCC1 noted as 12.1

Measured half-life of O=C(C[N+]12CCC(CC1)[C@@H](OC(=O)C1(C3=CC=CC3)CCCCCC1)C2)Nc1cnccn1 : 23

Looking up Cc1cc(CCC[N+]23CCC(CC2)[C@@H](OC(=O)C2(C4=CC=CC4)CCCCCC2)C3)ccn1 , I found its half-life recorded as 43.7

Note to self: half-life recorded for O=C(O[C@H]1C[N+]2(Cc3nc(-c4ccccc4)no3)CCC1CC2)C1(C2=CC=CC2)CCCCCC1 was 17

GET /value?item= O=C(O[C@H]1C[N+]2(Cc3nc4ccccc4o3)CCC1CC2)C1(C2=CC=CC2)CCCCCC1 &field=half-life returns 13

O=C(O[C@H]1C[N+]2(CCCc3nc4ccccc4o3)CCC1CC2)C1(C2=CC=CC2)CCCCCC1 has a reported half-life of 9.3

Lab book: half-life of O=C(O[C@H]1C[N+]2(CCCOc3ccccc3)CCC1CC2)C1(C2=CC=CC2)CCCCCC1 noted as 10.2

// sample O=C(O[C@H]1C[N+]2(CCCc3ccncc3)CCC1CC2)C1(C2=CC=CC2)CCCCCC1 , its half-life was 19

Query O=C(C[N+]12CCC(CC1)[C@@H](OC(=O)C1(C3=CC=CC3)CCCCCC1)C2)Nc1ccccn1 yields half-life of 25.6

Note to self: half-life recorded for O=C(C[N+]12CCC(CC1)[C@@H](OC(=O)C1(C3=CC=CC3)CCCCCC1)C2)Nc1ccc(Cl)nn1 was 56.7
